# studyTarget: Aβ42 (Homo sapiens)
# Sequence (P05067 672-713): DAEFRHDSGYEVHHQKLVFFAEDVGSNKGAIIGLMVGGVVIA
# testMethodNotes: Th-T (thioflavin-T) assay of Aβ42 aggregation
# Format: biochemical
# conditionDetails: column suffix _20; reading M13
Can you tell me Th-T assay signal, mean of three wells (Fig. 7a) for the items I'm about to list?
Lab note: record just the number, no unit beside it.

Endpoint output: Th-T assay signal, mean of three wells (Fig. 7a) of C=C1CCC2C(C)(CCC=C(C)C)C(O)CCC2(C)C1Cc1c(OC)oc(CO)c(C)c1=O (centres unmarked) . Value?
2.583

Next compound: C=C1CC[C@@H]2[C@](C)(CC[C@H]3O[C@H](C=C(C)C)C[C@@]23C)[C@@H]1Cc1c(OC)oc(CO)c(C)c1=O
1.152

Note, next up: C=C1CCC2C(C)(CCC=C(C)C)C(O)CCC2(C)C1Cc1c(OC)oc(C)c(C(=O)OC)c1=O (centres unmarked)
0.4951

Next entry: C=C1CCC2C(C)(CCC=C(C)C)C(O)CCC2(C)C1Cc1c(OC)oc(CO)c(C(=O)OC)c1=O (centres unmarked)
0.1854

Let us now turn to C=C1CC[C@@H]2[C@](C)(CC[C@H]3O[C@H](C=C(C)C)C[C@@]23C)[C@@H]1Cc1c(OC)oc(CO)c(C(=O)OC)c1=O
0.1957

###

# studyTarget: Aβ42 (Homo sapiens)
# testMethodNotes: Th-T (thioflavin-T) assay of Aβ42 aggregation
# Assay type: biochemical
# conditionDetails: reading M32; Supplementary Fig. 47 source data
// returns NO unless Th-T fluorescence, mean of three wells is strictly below 3, in which case YES

I wonder whether C=C1CC[C@H]2[C@]3(C)C[C@@H](C=C(C)C)O[C@H]3CC[C@]2(C)[C@@H]1Cc1c(O)c(C)c(C)oc1=O has Th-T fluorescence, mean of three wells below 3. Can you tell?
YES

Quick one: C=C1CCC2C(C)(CC(=O)C=C(C)C)C(O)CCC2(C)C1Cc1c(O)c(C)c(C)oc1=O (centres unmarked)
NO

Would you mind doing CC(C)=CCC/C(C)=C/CC/C(C)=C/CC/C(C)=C/Cc1c(O)c(C)c(C)oc1=O as well?
YES

C=C1CC[C@H]2[C@]3(C)C[C@H](C=C(C)C)O[C@H]3CC[C@]2(C)[C@@H]1Cc1c(OC)oc(C)c(C)c1=O , same question.
NO

###

For each of the molecules below, state its Th-T fluorescence, mean of three wells.
# studyTarget: Aβ42 (Homo sapiens)
# testMethodNotes: Th-T (thioflavin-T) assay of Aβ42 aggregation
# Format: biochemical
# conditionDetails: Aβ42 aggregation time course, reading M120
No unit in the answer, please; the number alone is enough.

Field request: Th-T fluorescence, mean of three wells | item: C=C1CCC2C(C)(CCC=C(C)C)C(O)CCC2(C)C1Cc1c(O)c(C)c(C)oc1=O (stereo not shown) [Compound 9, higginsianin B]
2.799

Okay, and C=C1CCC2C(C)(CCC=C(C)C)C(O)CCC2(C)C1Cc1c(OC)oc(CO)c(C)c1=O (stereo not shown) ?
2.05

Queued: C=C1CCC2C(C)(CCC=C(C)C)C(O)CCC2(C)C1Cc1c(OC)oc(C)c(C)c1=O (stereo not shown) [Compound 11]
3.398

Also C=C1CCC2C(C)(CCC=C(C)C)C(O)CCC2(C)C1Cc1c(OC)oc(C)c(C)c1=O (stereo not shown) [Compound 15, viridoxin A hydrolysate] ?
3.354
